Where do these numbers come from? They come from ChEMBL document CHEMBL2331225.

Would you kindly list pIC50 for each of these molecules?
- Test system: IMR-90
- assay.protocol: Cytotoxicity against human IMR90 cells after 48 hrs by MTT assay
- Assay type: cell-based
- experimental.parameters: IMR-90, 48 h
Give bare numbers, as −log10 of the molar value.

Consider the reported pIC50 for these molecules:
- O=C1c2ccccc2C(=O)c2c1ccc1nc(CCN3CCN(c4ncccn4)CC3)[nH]c21: 4.00
- O=C1c2ccccc2C(=O)c2c1ccc1nc(CCN3CCN(Cc4ccccc4)CC3)[nH]c21: 4.00

Pending molecule:
Lookup result for O=C1c2ccccc2C(=O)c2c1ccc1nc(CN3CCCCC3)[nH]c21 ; measured pIC50: 4.00

----------
Would you kindly list Activity for each of these compounds?
- Tested on: DU-145
- assay.protocol: Cytotoxicity against human DU145 cells assessed as cell growth level at 10 uM
- Assay type: functional
Give bare numbers, in %.

Consider the reported Activity for these compounds:
- O=C1c2ccccc2C(=O)c2c1ccc1nc(CN3CCN(c4ccccc4)CC3)[nH]c21: 77.91
- O=C1c2ccccc2C(=O)c2c1ccc1nc(CN3CCCCC3)[nH]c21: 81.94
- O=C1c2ccccc2C(=O)c2c1ccc1nc(CN3CCN(c4ccccn4)CC3)[nH]c21: 89.1

Pending compound:
Lookup result for CN(CCc1ccccn1)Cc1nc2ccc3c(c2[nH]1)C(=O)c1ccccc1C3=O ; measured Activity: 99.83

----------
Would you kindly list Activity for each of these molecules?
- target.or.test.system: Telomerase reverse transcriptase (Homo sapiens)
- Sequence (O14746 whole entry): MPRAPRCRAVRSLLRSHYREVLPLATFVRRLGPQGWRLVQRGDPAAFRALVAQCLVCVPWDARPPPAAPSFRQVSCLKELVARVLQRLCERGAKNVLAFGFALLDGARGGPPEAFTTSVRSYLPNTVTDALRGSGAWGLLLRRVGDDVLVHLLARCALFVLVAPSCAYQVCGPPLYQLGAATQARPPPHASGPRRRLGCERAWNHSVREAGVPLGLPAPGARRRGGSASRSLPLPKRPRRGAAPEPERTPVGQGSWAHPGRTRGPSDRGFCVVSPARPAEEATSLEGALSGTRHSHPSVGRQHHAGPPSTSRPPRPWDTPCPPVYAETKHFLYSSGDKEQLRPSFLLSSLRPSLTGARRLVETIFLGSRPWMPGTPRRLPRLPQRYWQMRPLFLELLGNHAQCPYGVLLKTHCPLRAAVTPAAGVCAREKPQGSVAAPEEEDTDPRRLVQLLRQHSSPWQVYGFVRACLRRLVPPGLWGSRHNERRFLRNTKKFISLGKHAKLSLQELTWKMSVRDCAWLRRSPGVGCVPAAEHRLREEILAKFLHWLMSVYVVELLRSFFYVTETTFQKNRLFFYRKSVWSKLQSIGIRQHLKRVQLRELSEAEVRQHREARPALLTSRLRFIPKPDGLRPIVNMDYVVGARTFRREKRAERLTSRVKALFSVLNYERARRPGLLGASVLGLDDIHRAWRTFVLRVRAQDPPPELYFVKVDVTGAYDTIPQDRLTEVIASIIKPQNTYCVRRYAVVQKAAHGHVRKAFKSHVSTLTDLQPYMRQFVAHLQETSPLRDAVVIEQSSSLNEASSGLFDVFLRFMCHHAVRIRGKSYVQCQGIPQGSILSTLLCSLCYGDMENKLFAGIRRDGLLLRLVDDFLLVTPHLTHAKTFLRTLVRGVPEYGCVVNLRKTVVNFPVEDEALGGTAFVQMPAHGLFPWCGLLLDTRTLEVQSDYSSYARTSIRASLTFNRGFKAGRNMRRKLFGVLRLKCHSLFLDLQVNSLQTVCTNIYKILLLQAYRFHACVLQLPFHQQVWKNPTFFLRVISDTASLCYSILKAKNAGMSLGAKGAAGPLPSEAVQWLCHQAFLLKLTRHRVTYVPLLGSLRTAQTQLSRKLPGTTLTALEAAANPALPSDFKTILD
- assay.protocol: Inhibition of TERT transcriptional activity in human H1299 cells assessed SEAP activity at 10 uM incubated for 24 hrs by SEAP assay
- Format: cell-based
- Design: scale not given: the % may be the effect or the level left
Give bare numbers, in %.

Consider the reported Activity for these molecules:
- O=C1c2ccccc2C(=O)c2c1ccc1nc(CNCc3cccc(C(F)(F)F)c3)[nH]c21: 89
- O=C(CCCl)Nc1ccc2c(c1NC(=O)CCCl)C(=O)c1ccccc1C2=O: 13

Go through the items and report each one's Activity.
1. CCN1CCN(Cc2nc3ccc4c(c3[nH]2)C(=O)c2ccccc2C4=O)CC1
2. CCN(CC)Cc1nc2ccc3c(c2[nH]1)C(=O)c1ccccc1C3=O
3. O=C1c2ccccc2C(=O)c2c1ccc1nc(CCN3CCN(c4ncccn4)CC3)[nH]c21

# output
[14, 32, 35]

Go through the items and report each one's Activity.
1. N#Cc1ccccc1N1CCN(Cc2nc3ccc4c(c3[nH]2)C(=O)c2ccccc2C4=O)CC1
2. CN(CCc1ccccn1)Cc1nc2ccc3c(c2[nH]1)C(=O)c1ccccc1C3=O
3. CC(C)N(C)Cc1nc2ccc3c(c2[nH]1)C(=O)c1ccccc1C3=O
4. O=C1c2ccccc2C(=O)c2c1ccc1nc(CCl)[nH]c21
5. O=C1c2ccccc2C(=O)c2c1ccc1nc(CNCc3ccccc3C(F)(F)F)[nH]c21
6. O=C1c2ccccc2C(=O)c2c1ccc1nc(CNCc3ccc4c(c3)OCO4)[nH]c21
7. O=C1c2ccccc2C(=O)c2c1ccc1nc(CCN3CCN(c4ccccn4)CC3)[nH]c21

# output
[57, 51, 1, 0, 81, 75, 63]

Go through the items and report each one's Activity.
1. O=C1c2ccccc2C(=O)c2c1ccc1nc(CN3CCSCC3)[nH]c21
2. CN(C)Cc1nc2ccc3c(c2[nH]1)C(=O)c1ccccc1C3=O
3. COc1cccc(N2CCN(Cc3nc4ccc5c(c4[nH]3)C(=O)c3ccccc3C5=O)CC2)c1
4. O=C1c2ccccc2C(=O)c2c1ccc1nc(CN3CCN(c4ccccc4)CC3)[nH]c21
5. CN(Cc1nc2ccc3c(c2[nH]1)C(=O)c1ccccc1C3=O)CC1OCCO1
6. O=C1c2ccccc2C(=O)c2c1ccc1nc(CN3CCCCC3)[nH]c21

# output
77
45
30
77
69
44

Go through the items and report each one's Activity.
1. O=C1c2ccccc2C(=O)c2c1ccc1nc(CN3CCCCCC3)[nH]c21
2. CN(Cc1nc2ccc3c(c2[nH]1)C(=O)c1ccccc1C3=O)Cc1c2ccccc2cc2ccccc12
3. O=C1c2ccccc2C(=O)c2c1ccc1nc(CN3CCN(Cc4ccccc4)CC3)[nH]c21
4. O=C1c2ccccc2C(=O)c2c1ccc1nc(CCN3CCN(Cc4ccccc4)CC3)[nH]c21
5. O=C1c2ccccc2C(=O)c2c1ccc1nc(CN3CCOCC3)[nH]c21
6. O=C1c2ccccc2C(=O)c2c1ccc1nc(CN3CCN(c4ccccn4)CC3)[nH]c21
7. C=CCN1CCN(Cc2nc3ccc4c(c3[nH]2)C(=O)c2ccccc2C4=O)CC1
8. O=C1c2ccccc2C(=O)c2c1ccc1nc(CN3CCN(c4ccccc4F)CC3)[nH]c21

# output
1. 66
2. 77
3. 11
4. 5
5. 97
6. 57
7. 17
8. 78

Go through the items and report each one's Activity.
1. O=C1c2ccccc2C(=O)c2c1ccc1nc(CN3CCC(CCCC4CCNCC4)CC3)[nH]c21
2. O=C1c2ccccc2C(=O)c2c1ccc1nc(CN(Cc3ccccn3)Cc3ccccn3)[nH]c21
3. O=C1c2ccccc2C(=O)c2c1ccc1nc(CCCl)[nH]c21
4. O=C1c2ccccc2C(=O)c2c1ccc1nc(CNCc3ccc(C(F)(F)F)cc3)[nH]c21
5. CN1CCN(Cc2nc3ccc4c(c3[nH]2)C(=O)c2ccccc2C4=O)CC1
6. O=C1c2ccccc2C(=O)c2c1ccc1nc(CN3CCC4(CC3)OCCO4)[nH]c21
7. O=C1c2ccccc2C(=O)c2c1ccc1nc(CN3CCN(c4ncccn4)CC3)[nH]c21
8. CCCN(C)Cc1nc2ccc3c(c2[nH]1)C(=O)c1ccccc1C3=O

# output
8
0
83
8
23
96
92
34

Go through the items and report each one's Activity.
1. CN1CCN(CCc2nc3ccc4c(c3[nH]2)C(=O)c2ccccc2C4=O)CC1
2. COc1cccc(CN(C)Cc2nc3ccc4c(c3[nH]2)C(=O)c2ccccc2C4=O)c1
3. CC1CCN(Cc2nc3ccc4c(c3[nH]2)C(=O)c2ccccc2C4=O)CC1
4. O=C1c2ccccc2C(=O)c2c1ccc1nc(CCN3CCN(c4ccccc4)CC3)[nH]c21
5. O=C1c2ccccc2C(=O)c2c1ccc1nc(CN3CCSC3)[nH]c21
6. CCN(C)Cc1nc2ccc3c(c2[nH]1)C(=O)c1ccccc1C3=O

# output
1. 7
2. 78
3. 97
4. 93
5. 86
6. 39
